Experiment: Brain to plasma partition coefficient, Kp of the compound in Sprague-Dawley rat at 0.2 to […], iv administered as cassette dose measured at […] post dose by LC-MS/MS analysis
Format: ADME, organism-based
Settings: brain and plasma
measured metric: Kp at […]

Examples from the recorded data:
smiles representation: COc1ccc(-c2c(C)nn3c(C(F)(F)F)cc(C)nc23)c(F)c1
Kp at […]: 1.4
//
smiles representation: COc1ccc(-c2c(C)nn3c(C(F)(F)F)cc(C)nc23)cc1
Kp at […]: 1.4
//
smiles representation: COc1cc(F)c(-c2c(C)nn3c(C(F)(F)F)cc(C)nc23)cc1F
Kp at […]: 2.7
//
smiles representation: COc1ccc(-c2c(C)nn3c(C(F)(F)F)cc(C)nc23)cc1F
Kp at […]: 4.3
//
smiles representation: COc1ccc(-c2c(C)nn3c(C(F)(F)F)cc(C)nc23)c(F)c1F
Kp at […]: 4.3

a. COc1cc(F)c(-c2c(C)nn3c(C(F)(F)F)cc(C)nc23)c(F)c1
b. COc1ccc(-c2c(C)nn3c(C(F)(F)F)cc(C)nc23)cc1Cl
c. Cc1cc(C(F)(F)F)n2nc(C)c(-c3ccc(OC(F)F)cc3)c2n1
List these items ordered by Kp at […], big to small. Quick reminder: the answer is the labels in the order asked. b, a, c
(b: 4.8, a: 2.2, c: 1.5)

====

Target: L-type calcium channel, benzothiazepine site (Rattus norvegicus, UniProt P22002+P27732+Q02485)
Experiment: Inhibition of rat L-type calcium channel benzothiazepine site at 10 uM relative to control
Type: protein assay
measured metric: inhibition at 10 µM

Tell us which inhibition at 10 µM value is on record for "COc1ccc(-c2c(C)nn3c(C(F)(F)F)cc(C)nc23)c(F)c1F" < 50%

====

Molecular target: Metabotropic glutamate receptor 4 (Homo sapiens, UniProt Q14833)
Sequence (Q14833 whole entry): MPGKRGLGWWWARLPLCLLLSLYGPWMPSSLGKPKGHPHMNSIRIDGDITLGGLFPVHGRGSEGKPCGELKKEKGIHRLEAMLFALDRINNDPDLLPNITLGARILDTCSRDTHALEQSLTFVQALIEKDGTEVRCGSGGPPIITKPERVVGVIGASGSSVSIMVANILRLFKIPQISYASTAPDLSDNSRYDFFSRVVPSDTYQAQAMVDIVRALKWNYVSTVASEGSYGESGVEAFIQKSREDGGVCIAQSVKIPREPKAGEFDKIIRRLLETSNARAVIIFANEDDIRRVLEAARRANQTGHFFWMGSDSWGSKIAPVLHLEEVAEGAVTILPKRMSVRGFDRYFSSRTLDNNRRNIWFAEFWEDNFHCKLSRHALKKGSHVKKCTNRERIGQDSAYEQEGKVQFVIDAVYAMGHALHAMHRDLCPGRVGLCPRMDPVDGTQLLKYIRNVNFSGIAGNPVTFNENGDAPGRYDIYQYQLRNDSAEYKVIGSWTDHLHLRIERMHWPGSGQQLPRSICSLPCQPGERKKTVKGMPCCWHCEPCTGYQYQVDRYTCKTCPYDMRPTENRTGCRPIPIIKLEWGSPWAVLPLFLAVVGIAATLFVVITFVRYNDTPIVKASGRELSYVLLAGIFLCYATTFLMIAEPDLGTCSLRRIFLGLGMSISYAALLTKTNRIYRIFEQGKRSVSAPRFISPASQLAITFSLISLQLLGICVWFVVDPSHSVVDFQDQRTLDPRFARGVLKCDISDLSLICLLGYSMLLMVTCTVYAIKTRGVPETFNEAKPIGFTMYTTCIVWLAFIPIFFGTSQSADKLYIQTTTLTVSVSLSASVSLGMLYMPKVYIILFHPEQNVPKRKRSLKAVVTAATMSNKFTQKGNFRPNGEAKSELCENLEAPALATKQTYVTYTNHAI
Experiment: Positive allosteric modulation of human mGlu4 receptor expressed in CHO cells co-expressing Gqi5 assessed as increase in glutamate-induced calcium mobilization incubated for 142 secs followed by glutamate addition measured after 120 secs by Fluo4-AM dye based fluorescence assay
measured metric: pEC50
Please express pEC50 as -log10 of the molar concentration.

Tell us which pEC50 value is on record for "COC(=O)c1ccc(-n2c(C)cc(C(=O)CSc3ccc(NC(C)=O)cc3)c2C)cc1" 5.49

====

Target: Metabotropic glutamate receptor 3 (Rattus norvegicus, UniProt P31422)
Sequence (P31422 whole entry): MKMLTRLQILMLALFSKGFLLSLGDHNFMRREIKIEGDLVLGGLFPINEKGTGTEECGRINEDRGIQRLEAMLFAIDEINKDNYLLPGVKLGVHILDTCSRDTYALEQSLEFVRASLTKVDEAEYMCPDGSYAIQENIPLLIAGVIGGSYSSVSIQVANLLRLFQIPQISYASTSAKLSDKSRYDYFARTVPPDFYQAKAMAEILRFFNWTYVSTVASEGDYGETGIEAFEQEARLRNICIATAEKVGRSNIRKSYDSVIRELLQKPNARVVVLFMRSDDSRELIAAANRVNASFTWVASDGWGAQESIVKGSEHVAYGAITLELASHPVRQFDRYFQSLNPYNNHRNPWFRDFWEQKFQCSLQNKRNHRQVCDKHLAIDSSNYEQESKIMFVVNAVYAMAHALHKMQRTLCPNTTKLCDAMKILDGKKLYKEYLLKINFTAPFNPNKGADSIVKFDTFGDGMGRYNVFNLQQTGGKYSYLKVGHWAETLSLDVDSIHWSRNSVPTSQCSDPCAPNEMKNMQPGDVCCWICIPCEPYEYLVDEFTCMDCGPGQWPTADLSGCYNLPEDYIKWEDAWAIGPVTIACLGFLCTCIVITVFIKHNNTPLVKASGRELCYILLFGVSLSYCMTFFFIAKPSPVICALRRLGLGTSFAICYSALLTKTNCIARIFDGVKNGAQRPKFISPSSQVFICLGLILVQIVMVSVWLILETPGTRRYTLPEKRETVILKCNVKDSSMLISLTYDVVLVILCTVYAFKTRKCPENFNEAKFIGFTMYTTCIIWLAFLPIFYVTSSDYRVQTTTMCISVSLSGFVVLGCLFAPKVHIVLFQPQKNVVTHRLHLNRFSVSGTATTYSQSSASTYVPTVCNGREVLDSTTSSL
Experiment: Positive allosteric modulation of rat mGlu3 receptor expressed in HEK cells assessed as increase in glutamate-induced calcium flux incubated for 142 secs followed by glutamate addition measured after 120 secs by Fluo4-AM dye based fluorescence assay
pEC50: −log10 of the molar value.
measured metric: pEC50

Tell us which pEC50 value is on record for "COc1ccc(-c2c(C)nn3c(C(F)(F)F)cc(C)nc23)c(F)c1F" < 5.00

====

Target: Metabotropic glutamate receptor 7 (Rattus norvegicus)
Test: Negative allosteric modulation of rat mGlu7 receptor expressed in HEK cells co-expressing Galphai5 assessed as decrease in glutamate-induced thallium flux incubated for 142 secs followed by glutamate addition measured after 120 secs by Fluo4-AM dye based fluorescence assay
measured metric: pIC50
Please express pIC50 as -log10 of the molar concentration.

Tell us which pIC50 value is on record for CCc1nc2c(o1)CC(c1ccc(C)cc1C)CC2=O (stereo unspecified) 6.19

====

Target: Metabotropic glutamate receptor 8 (Rattus norvegicus, UniProt P70579)
Sequence (P70579 whole entry): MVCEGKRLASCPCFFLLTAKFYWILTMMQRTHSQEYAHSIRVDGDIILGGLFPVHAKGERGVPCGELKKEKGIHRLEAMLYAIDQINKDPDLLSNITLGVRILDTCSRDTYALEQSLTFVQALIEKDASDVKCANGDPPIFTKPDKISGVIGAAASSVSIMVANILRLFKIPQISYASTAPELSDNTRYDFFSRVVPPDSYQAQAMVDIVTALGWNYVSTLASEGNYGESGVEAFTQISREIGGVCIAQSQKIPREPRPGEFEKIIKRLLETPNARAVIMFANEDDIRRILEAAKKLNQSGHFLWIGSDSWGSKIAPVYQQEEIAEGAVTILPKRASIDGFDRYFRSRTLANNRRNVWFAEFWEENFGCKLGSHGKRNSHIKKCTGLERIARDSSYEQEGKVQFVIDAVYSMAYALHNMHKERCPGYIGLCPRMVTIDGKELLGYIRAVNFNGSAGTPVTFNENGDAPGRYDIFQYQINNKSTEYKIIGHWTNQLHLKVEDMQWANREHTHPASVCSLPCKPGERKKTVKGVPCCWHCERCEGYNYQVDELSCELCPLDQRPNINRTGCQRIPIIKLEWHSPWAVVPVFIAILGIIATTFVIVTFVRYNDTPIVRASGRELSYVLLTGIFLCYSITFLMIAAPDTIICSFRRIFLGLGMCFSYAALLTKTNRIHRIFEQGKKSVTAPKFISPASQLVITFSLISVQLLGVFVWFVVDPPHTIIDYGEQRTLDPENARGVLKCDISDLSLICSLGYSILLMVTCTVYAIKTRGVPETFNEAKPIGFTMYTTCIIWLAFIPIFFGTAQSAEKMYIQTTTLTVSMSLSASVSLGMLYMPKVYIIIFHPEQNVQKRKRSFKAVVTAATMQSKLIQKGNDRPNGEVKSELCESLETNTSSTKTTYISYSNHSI
Assay: Positive allosteric modulation of rat mGlu8 receptor expressed in HEK cells co-expressing Galphai5 assessed as increase in glutamate-induced calcium flux incubated for 142 secs followed by glutamate addition measured after 120 secs by Fluo4-AM dye based fluorescence assay
measured metric: pEC50
Please express pEC50 as -log10 of the molar concentration.

Tell us which pEC50 value is on record for "COC(=O)c1ccc(-n2c(C)cc(C(=O)CSc3ccc(NC(C)=O)cc3)c2C)cc1" 6.05

====

Target: Metabotropic glutamate receptor 5 (Rattus norvegicus)
Assay: Positive allosteric modulation of rat mGlu5 receptor expressed in HEK cells assessed as increase in glutamate-induced calcium flux incubated for 142 secs followed by glutamate addition measured after 120 secs by Fluo4-AM dye based fluorescence assay
Format: functional, cell-based
pEC50: −log10 of the molar value.
measured metric: pEC50

Tell us which pEC50 value is on record for "COc1ccc(-c2c(C)nn3c(C(F)(F)F)cc(C)nc23)c(F)c1F" < 5.00

====

Molecular target: Metabotropic glutamate receptor 1 (Rattus norvegicus, UniProt P23385)
Sequence (P23385 whole entry): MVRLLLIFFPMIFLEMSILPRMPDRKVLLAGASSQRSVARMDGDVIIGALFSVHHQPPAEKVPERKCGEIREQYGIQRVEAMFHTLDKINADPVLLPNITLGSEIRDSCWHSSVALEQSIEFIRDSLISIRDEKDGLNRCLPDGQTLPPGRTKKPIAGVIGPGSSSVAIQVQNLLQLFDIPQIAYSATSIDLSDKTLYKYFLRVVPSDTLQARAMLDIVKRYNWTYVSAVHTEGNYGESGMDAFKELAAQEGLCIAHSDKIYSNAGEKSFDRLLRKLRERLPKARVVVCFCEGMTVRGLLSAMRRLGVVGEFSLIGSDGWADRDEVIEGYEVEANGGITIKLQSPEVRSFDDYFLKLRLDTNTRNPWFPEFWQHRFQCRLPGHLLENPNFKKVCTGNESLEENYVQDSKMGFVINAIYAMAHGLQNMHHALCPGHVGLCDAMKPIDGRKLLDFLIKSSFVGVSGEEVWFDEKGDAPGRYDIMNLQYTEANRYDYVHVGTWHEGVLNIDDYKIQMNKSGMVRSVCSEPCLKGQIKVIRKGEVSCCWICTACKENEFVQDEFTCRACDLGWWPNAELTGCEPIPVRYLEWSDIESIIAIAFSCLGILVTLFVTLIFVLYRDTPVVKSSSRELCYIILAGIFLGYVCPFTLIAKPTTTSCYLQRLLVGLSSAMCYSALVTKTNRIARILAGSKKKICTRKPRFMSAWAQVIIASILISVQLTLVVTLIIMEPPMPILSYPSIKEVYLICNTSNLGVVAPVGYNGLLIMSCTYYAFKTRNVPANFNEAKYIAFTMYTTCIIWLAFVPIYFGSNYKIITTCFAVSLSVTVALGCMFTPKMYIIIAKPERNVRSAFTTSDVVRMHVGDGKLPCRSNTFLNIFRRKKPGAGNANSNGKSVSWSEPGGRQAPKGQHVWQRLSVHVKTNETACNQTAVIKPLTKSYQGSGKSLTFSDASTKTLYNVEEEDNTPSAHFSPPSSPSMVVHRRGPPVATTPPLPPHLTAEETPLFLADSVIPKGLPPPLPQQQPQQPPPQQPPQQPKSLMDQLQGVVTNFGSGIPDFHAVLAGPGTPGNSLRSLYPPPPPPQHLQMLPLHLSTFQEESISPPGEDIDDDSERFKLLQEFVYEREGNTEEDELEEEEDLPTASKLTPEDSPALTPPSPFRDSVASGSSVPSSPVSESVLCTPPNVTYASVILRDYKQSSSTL
Assay: Negative allosteric modulation of rat mGlu1 receptor expressed in HEK cells assessed as decrease in glutamate-induced thallium flux incubated for 142 secs followed by glutamate addition measured after 120 secs by Fluo4-AM dye based fluorescence assay
Format: functional, cell-based
pIC50: −log10 of the molar value.
measured metric: pIC50

Tell us which pIC50 value is on record for "COc1ccc(-c2c(C)nn3c(C(F)(F)F)cc(C)nc23)c(F)c1F" < 5.00

====

Read-out record for Cytochrome P450 2C9 (Homo sapiens): IC50
Lab book: enter the figure in µM, no units written.

smiles representation: COc1ccc(-c2c(C)nn3c(C(F)(F)F)cc(C)nc23)c(F)c1F
measured metric: IC50
numeric result: 24.7

Attention now shifts to the item below.
Tell us which IC50 value is on record for "COc1ccc(-c2c(C)nn3c(C(F)(F)F)cc(C)nc23)cc1F" 27

====

Target: Metabotropic glutamate receptor 1 (Rattus norvegicus)
Assay: Positive allosteric modulation of rat mGlu1 receptor expressed in HEK cells assessed as increase in glutamate-induced calcium flux incubated for 142 secs followed by glutamate addition measured after 120 secs by Fluo4-AM dye based fluorescence assay
pEC50: −log10 of the molar value.
measured metric: pEC50

Tell us which pEC50 value is on record for "COc1ccc(-c2c(C)nn3c(C(F)(F)F)cc(C)nc23)c(F)c1F" < 5.00

====

Molecular target: Metabotropic glutamate receptor 5 (Rattus norvegicus, UniProt P31424)
Sequence (P31424 whole entry): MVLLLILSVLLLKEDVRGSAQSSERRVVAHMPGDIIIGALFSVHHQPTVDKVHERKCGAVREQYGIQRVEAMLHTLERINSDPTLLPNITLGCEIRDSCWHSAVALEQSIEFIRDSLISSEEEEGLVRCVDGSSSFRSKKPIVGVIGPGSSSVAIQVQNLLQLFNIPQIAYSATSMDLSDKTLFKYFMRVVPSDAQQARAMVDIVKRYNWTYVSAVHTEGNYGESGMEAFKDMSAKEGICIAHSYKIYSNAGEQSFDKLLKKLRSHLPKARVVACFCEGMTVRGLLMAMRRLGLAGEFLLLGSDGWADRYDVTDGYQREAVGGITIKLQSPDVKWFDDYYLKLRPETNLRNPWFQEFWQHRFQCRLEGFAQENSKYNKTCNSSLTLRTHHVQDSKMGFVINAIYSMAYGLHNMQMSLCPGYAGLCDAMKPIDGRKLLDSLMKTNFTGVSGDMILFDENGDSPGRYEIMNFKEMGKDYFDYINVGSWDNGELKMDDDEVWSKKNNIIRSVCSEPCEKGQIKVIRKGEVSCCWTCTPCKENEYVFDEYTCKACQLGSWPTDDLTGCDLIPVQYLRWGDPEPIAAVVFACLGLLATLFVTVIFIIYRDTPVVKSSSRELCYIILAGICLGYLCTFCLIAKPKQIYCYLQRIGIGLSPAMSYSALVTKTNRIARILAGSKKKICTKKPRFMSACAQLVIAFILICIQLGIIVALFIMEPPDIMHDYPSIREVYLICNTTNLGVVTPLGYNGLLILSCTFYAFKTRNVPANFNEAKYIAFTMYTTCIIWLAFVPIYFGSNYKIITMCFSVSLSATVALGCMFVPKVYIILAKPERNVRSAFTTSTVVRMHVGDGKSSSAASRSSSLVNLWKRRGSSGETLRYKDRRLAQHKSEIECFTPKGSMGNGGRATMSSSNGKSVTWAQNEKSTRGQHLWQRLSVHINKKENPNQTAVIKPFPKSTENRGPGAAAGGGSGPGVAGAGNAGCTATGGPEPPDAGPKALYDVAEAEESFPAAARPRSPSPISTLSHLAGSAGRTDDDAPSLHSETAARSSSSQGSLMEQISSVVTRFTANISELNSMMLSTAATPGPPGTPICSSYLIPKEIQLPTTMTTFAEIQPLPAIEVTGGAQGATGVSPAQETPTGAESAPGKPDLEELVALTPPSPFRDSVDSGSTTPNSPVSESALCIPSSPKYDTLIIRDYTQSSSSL
Assay: Negative allosteric modulation of rat mGlu5 receptor expressed in HEK cells assessed as decrease in glutamate-induced thallium flux incubated for 142 secs followed by glutamate addition measured after 120 secs by Fluo4-AM dye based fluorescence assay
pIC50: −log10 of the molar value.
measured metric: pIC50

# lookup: Metabotropic glutamate receptor 5 (Rattus norvegicus, UniProt P31424) pIC50, key = "COc1ccc(-c2c(C)nn3c(C(F)(F)F)cc(C)nc23)c(F)c1F" < 5.00

====

Molecular target: Metabotropic glutamate receptor 3 (Rattus norvegicus, UniProt P31422)
Experiment: Negative allosteric modulation of rat mGlu3 receptor expressed in HEK cells harboring GIRK channel assessed as decrease in glutamate-induced thallium flux incubated for 142 secs followed by glutamate addition measured after 120 secs by Fluo4-AM dye based fluorescence assay
pIC50: −log10 of the molar value.
measured metric: pIC50

# lookup: Metabotropic glutamate receptor 3 (Rattus norvegicus, UniProt P31422) pIC50, key = "COc1ccc(-c2c(C)nn3c(C(F)(F)F)cc(C)nc23)c(F)c1F" < 5.00

====

Target: hERG (KCNH2) (Homo sapiens, UniProt Q12809)
Experiment: Displacement of [3H] astemizole from full length human recombinant ERG receptor expressed in HEK293 cell membranes at 10 uM after 60 mins by scintillation counting method relative to control
Conditions: HEK293 cell membranes that express recombinant human ERG, probe [3H] astemizole
measured metric: inhibition at 1 h, 10 µM

Tell us which inhibition at 1 h, 10 µM value is on record for "COc1ccc(-c2c(C)nn3c(C(F)(F)F)cc(C)nc23)c(F)c1F" < 50%

====

Target protein (sequence): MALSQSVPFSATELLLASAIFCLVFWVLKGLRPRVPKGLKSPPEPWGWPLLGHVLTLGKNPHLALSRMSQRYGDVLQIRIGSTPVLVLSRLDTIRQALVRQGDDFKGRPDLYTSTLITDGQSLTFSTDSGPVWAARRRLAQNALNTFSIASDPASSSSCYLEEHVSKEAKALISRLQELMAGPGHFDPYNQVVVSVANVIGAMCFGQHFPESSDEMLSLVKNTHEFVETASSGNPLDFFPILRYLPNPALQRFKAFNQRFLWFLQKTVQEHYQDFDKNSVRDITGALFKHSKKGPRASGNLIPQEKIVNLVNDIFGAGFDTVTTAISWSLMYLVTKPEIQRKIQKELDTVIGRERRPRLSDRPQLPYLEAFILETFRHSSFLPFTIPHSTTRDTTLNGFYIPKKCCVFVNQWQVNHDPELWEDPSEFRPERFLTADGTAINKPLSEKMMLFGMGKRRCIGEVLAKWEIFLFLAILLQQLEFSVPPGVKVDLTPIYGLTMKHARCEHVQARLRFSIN
Catalogue of IC50 values
Lab book: enter the figure in nM, no units written.

smiles representation: COc1ccc(-c2c(C)nn3c(C(F)(F)F)cc(C)nc23)c(F)c1F
IC50 [nM]: 3080

Attention now shifts to the item below.
Tell us which IC50 value is on record for "COc1ccc(-c2c(C)nn3c(C(F)(F)F)cc(C)nc23)cc1" 690
